Just for reference, ChEMBL document CHEMBL5096242 is where these values come from.

# studySystem: Sigma intracellular receptor 2 (Homo sapiens, UniProt Q5BJF2)
# Sequence (Q5BJF2 whole entry): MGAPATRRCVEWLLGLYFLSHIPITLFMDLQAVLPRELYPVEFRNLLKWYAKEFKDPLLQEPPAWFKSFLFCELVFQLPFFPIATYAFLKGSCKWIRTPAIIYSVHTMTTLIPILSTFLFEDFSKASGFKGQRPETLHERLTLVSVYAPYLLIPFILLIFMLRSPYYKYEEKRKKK
# test: Displacement of [3H]-DTG from human sigma2 receptor expressed in human HEK293T cell membrane incubated for 90 mins by radioligand binding assay
This section presents compounds with their documented Ki values.

These solved cases illustrate the format of a correct answer.
CCCC(CCC)c1nc2c(Nc3ccc(Cl)c(Cl)c3)nc3ccccc3c2[nH]1	1360 nM
CCCC(CCC)c1nc2c(Nc3ccc(I)cc3)nc3ccccc3c2[nH]1	891 nM

stdin: Any idea what Ki came out for Clc1ccc(Nc2nc3ccccc3c3[nH]c(C4CCCCCCCC4)nc23)cc1Cl on Sigma intracellular receptor 2 (Homo sapiens, UniProt Q5BJF2)?
stdout: 907 nM

stdin: Return Ki measured with Sigma intracellular receptor 2 (Homo sapiens, UniProt Q5BJF2) given this compound: Clc1ccc(Nc2nc3ccccc3c3[nH]c(C4CCC=CCC4)nc23)cc1Cl
stdout: 575 nM
